Counter-ions that a name gives are not always drawn.
In this section, each of the compounds is paired with its reported melting point.

Solved entries:
Compound: O=C(O)/C=C\C(=O)O.OCCNCCOc1cccc2c1c1ccccc1n2Cc1ccccc1 [Example 49]
melting point: 160 °C
--
Compound: CNCCOc1cccc2c1c1ccccc1n2Cc1ccccc1.O=C(O)/C=C\C(=O)O [Example 34]
melting point: 182.5 to 184.5 °C
--
Compound: CCN(CC)CCOc1cccc2c1c1cccc(F)c1n2Cc1ccc(F)cc1 [Example 42]
melting point: 59 to 60 °C
--
Compound: CCN(CC)CCOc1cccc2c1c1cc(F)ccc1n2Cc1ccccc1 [Example 44]
melting point: 68 to 69 °C
--
Compound: NCCOc1cccc2c1c1cccc(F)c1n2Cc1ccccc1 [Example 41]
melting point: 122.25 to 123 °C
--
Compound: O=CNCCOc1cccc2c1c1ccccc1n2Cc1ccccc1 [Example 33]
melting point: 161 to 162 °C
--
Compound: Cc1nc(Cn2c3ccccc3c3c(OCCN)cccc32)cs1 (as salt: methane sulfonate) [Example 51]
melting point: 228.5 to 229 °C
--
Compound: c1ccc(Cn2c3ccccc3c3c(OCCN4CCCCC4)cccc32)cc1 [Example 39]
melting point: 113.5 to 114.5 °C
--
Compound: COCCNCCOc1cccc2c1c1ccccc1n2Cc1ccccc1.O=C(O)/C=C\C(=O)O [Example 36]
melting point: 175 to 175.5 °C
--
Compound: Cc1ccc2c(c1)c1c(OCCN)cccc1n2Cc1ccccc1.O=C(O)/C=C\C(=O)O [Example 46]
melting point: 187.5 to 188 °C

For the compound CCN(CC)CCOc1cccc2c1c1cccc(F)c1n2Cc1ccccc1 [Example 7] , what melting point is on record?
60 to 60.5 °C

Looking for the measured melting point of CCN(CC)CCOc1cccc2c1c1cccc(Cl)c1n2Cc1ccc(F)cc1 [Example 3] , can you help?
104.5 to 105.5 °C
